Provide the recorded koff for the entries that follow.
TARGET_ENTITY: T1, human FGFR2b (Kaixia Biotechnology, catalog number FGR-HM1BB) (human, UniProt P21802-3 22-378)
T1 construct: extracellular domain; bought; also called hFGFR2b; human FGFR2b protein
METHOD_NOTES: BLI, antibody on AHC2 sensor
Give just the number in s⁻¹; leave the unit off.

Suppose we examine the binder 3H9-VH1-VL0 (antibody, human IgG1, kappa, V domains shown, humanized IgG1) VH: QVQLVQSGAEVKKPGASVKVSCKASGYTFTFYNMHWVRQAPGQGLEWIGLIYPDNGDTSYNQKFKGRATLTADTSTSTVYMELSSLRSEDTAVYYCARGGLDYWGQGTTVTVSS VL: DIQMTQSPSSLSASVGDRVTITCRASENIYSNLAWYQQKPGKAPKLLIYAATNLADGVPSRFSGSGSGTDFTLTISSLQPEDFATYYCQHFWGTPYTFGGGTKVEIKR ; what koff value has been reported?
0.00433

Suppose we examine the binder 3C7-VH2-VL0 (antibody, human IgG1, kappa, V domains shown, humanized IgG1) VH: QVQLVQSGAEVKKPGASVKVSCKASGYIFRNYYIHWVRQAPGQGLEWMGAIYPDNGDTSYNQRFKVRATLTADTSTSTVYMELSSLRSEDTAVYYCARAFTYWGQGTTVTVSS VL: DIQMTQSPSSLSASVGDRVTITCRASENIYGALNWYQQKPGKAPKLLIYGATNLADGVPSRFSGSGSGTDFTLTISSLQPEDFATYYCQNVLSTPYTFGGGTKVEIKR ; what koff value has been reported?
0.000829

Suppose we examine the binder 3H9-VH3-VL1 (antibody, human IgG1, kappa, V domains shown, humanized IgG1) VH: QVQLVQSGAEVKKPGASVKVSCKASGYTFSFYNMHWVKQAPGQGLEWIGLIYPDNGDTSYNQKFKGRATLTADTSTSTVYMELSSLRSEDTAVYYCARGGLDYWGQGTTVTVSS VL: DIQMTQSPSSLSASVGDRVTITCRASENIYSNLAWYQQKPGKSPKLLIYAATNLADGVPSRFSGSGSGTDYTLTISSLQPEDFATYYCQHFWGTPYTFGGGTKVEIKR ; what koff value has been reported?
0.000324
